target or system: recombinant human JAK1 kinase domain protein (Residues 854-1154) (Homo sapiens)
Construct: human JAK1 kinase domain protein (Residues 854-1154)
Sequence (P23458 854-1154): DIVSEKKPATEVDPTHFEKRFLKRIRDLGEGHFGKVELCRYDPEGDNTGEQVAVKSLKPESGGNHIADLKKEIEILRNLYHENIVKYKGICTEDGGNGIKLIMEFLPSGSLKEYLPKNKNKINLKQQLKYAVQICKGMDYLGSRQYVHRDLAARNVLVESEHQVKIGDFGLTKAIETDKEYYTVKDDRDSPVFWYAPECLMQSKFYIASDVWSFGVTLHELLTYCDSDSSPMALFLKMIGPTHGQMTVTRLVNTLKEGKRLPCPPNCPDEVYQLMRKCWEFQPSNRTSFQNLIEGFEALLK
method notes: JAK1 biochemical assay (LabChip mobility shift, Ki)
condition details: read-out: Biochem JAK1 Ki
property: Ki (nM)

smiles entry: Cn1cc(Oc2ccc(OC(F)F)c(-c3nn(C)cc3NC(=O)c3cnn4cccnc34)c2)cn1
target or system: recombinant human JAK1 kinase domain protein (Residues 854-1154) (Homo sapiens)
property: Ki
unit: nM
reported: 0.31

smiles entry: CN1CCc2ccc(Oc3ccc(OC(F)F)c(-c4n[nH]cc4NC(=O)c4cnn5cccnc45)c3)cc2C1
target or system: recombinant human JAK1 kinase domain protein (Residues 854-1154) (Homo sapiens)
property: Ki
unit: nM
reported: 0.51

smiles entry: Cc1ccc(Oc2ccc(OC(F)F)c(-c3nn(C)cc3NC(=O)c3cnn4cccnc34)c2)cc1C(=O)N(C)C
target or system: recombinant human JAK1 kinase domain protein (Residues 854-1154) (Homo sapiens)
property: Ki
unit: nM
reported: 0.44

[A] NCc1cc(Oc2ccc(OC(F)F)c(-c3n[nH]cc3NC(=O)c3cnn4cccnc34)c2)ccc1C(F)(F)F
[B] Cn1cc(NC(=O)c2cnn3cccnc23)c(-c2cc(Oc3cnn([C@H]4C[C@H](N)C4)c3)ccc2OC(F)F)n1
Ask: // select label with min value of measured Ki from [ A , B ] Provide the label of your selected option as the answer.
Result: B

---

target or system: recombinant human JAK1 kinase domain protein (Residues 854-1154) (Homo sapiens)
Construct: human JAK1 kinase domain protein (Residues 854-1154)
method notes: JAK1 biochemical assay (LabChip mobility shift, Ki)
condition details: read-out: Biochem JAK1 Ki
property: Ki (nM)

Reference set, count: 3
smiles entry: CN1CC(O)(c2cccc(Oc3ccc(OC(F)F)c(-c4n[nH]cc4NC(=O)c4cnn5cccnc45)c3)c2)C1
target or system: recombinant human JAK1 kinase domain protein (Residues 854-1154) (Homo sapiens)
unit: nM
Ki: 0.55

smiles entry: CN(C)C(=O)c1ccc(Oc2ccc(OC(F)F)c(-c3nn(C)cc3NC(=O)c3cnn4cccnc34)c2)cc1
target or system: recombinant human JAK1 kinase domain protein (Residues 854-1154) (Homo sapiens)
unit: nM
Ki: 0.31

smiles entry: Cn1cc(NC(=O)c2cnn3cccnc23)c(-c2cc(Oc3cc(CN)ccc3F)ccc2OC(F)F)n1
target or system: recombinant human JAK1 kinase domain protein (Residues 854-1154) (Homo sapiens)
unit: nM
Ki: 0.19

[a] Cn1cc(NC(=O)c2cnn3cccnc23)c(-c2cc(Oc3cccc(CN[C@H]4C[C@H](O)C4)c3)ccc2OC(F)F)n1
[b] CN1CC(O)(Cn2cc(Oc3ccc(OC(F)F)c(-c4nn(C)cc4NC(=O)c4cnn5cccnc45)c3)cn2)C1
[c] CN1CC(O)(c2cc(Oc3ccc(OC(F)F)c(-c4nn(C)cc4NC(=O)c4cnn5cccnc45)c3)cc(C(F)(F)F)c2)C1
Ask: Rank the items in ascending order with respect to Ki. Please respond with the labels ordered as the question requires.
Result: b, a, c

---

target or system: Recombinant human JAK2 kinase domain protein (Residues 812-1132) (Homo sapiens, UniProt O60674)
Sequence (O60674 812-1132): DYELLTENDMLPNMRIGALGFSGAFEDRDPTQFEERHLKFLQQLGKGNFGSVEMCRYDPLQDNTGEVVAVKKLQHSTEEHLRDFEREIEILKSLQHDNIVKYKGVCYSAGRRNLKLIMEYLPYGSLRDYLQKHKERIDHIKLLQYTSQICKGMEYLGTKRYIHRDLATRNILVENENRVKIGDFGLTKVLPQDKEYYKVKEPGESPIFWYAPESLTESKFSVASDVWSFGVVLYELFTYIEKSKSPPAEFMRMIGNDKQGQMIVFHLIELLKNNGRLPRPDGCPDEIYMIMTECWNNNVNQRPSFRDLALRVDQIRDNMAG
method notes: JAK2 biochemical assay (LabChip mobility shift, Ki)
condition details: Biochem JAK2 Ki
pKi: −log10 of the molar value.
property: pKi

Reference set, count: 6
compound: Cn1cc(NC(=O)c2cnn3cccnc23)c(-c2cc(Oc3cc(CNCCO)ccc3F)ccc2OC(F)F)n1
pKi: 9.40
--
compound: CN1CCC[C@H]1Cn1cc(NC(=O)c2cnn3cccnc23)c(-c2cc(Oc3cccc(CC#N)c3)ccc2OC(F)F)n1 (racemic)
pKi: 8.85
--
compound: NCc1cccc(Oc2ccc(OC(F)F)c(-c3n[nH]cc3NC(=O)c3cnn4cccnc34)c2)c1
pKi: 9.70
--
compound: CN1CC(n2cc(Oc3ccc(OC(F)F)c(-c4nn(C)cc4NC(=O)c4cnn5cccnc45)c3)cn2)C1
pKi: 8.80
--
compound: CN1CC(O)(c2cccc(Oc3ccc(OC(F)F)c(-c4nn(C5COC5)cc4NC(=O)c4cnn5cccnc45)c3)c2)C1
pKi: 9.34
--
compound: Cn1cc(NC(=O)c2cnn3cccnc23)c(-c2cc(Oc3ccc(CN4CCC(CO)C4)cc3)ccc2OC(F)F)n1 (racemic)
pKi: 8.72

[a] Cn1cc(NC(=O)c2cnn3cccnc23)c(-c2cc(Oc3ccc4c(c3)CNCC4)ccc2OC(F)F)n1
[b] Cn1cc(NC(=O)c2cnn3cccnc23)c(-c2cc(Oc3cnn(C4CCNCC4O)c3)ccc2OC(F)F)n1 (centres unmarked) [Example 182]
Ask: // select label with min value of measured pKi from [ a , b ] Provide the label of your selected option as the answer.
Result: b
(b: 9.37, a: 9.66)

[1] Cn1cc(NC(=O)c2cnn3cccnc23)c(-c2cc(Oc3cccc(C4(O)CNC4)c3)ccc2OC(F)F)n1
[2] Cn1cc(Oc2ccc(OC(F)F)c(-c3nn(CC(N)=O)cc3NC(=O)c3cnn4cccnc34)c2)cn1
Ask: Which one would you say has the larger pKi value: 1 , or 2 ? Provide the label of your selected option as the answer.
Result: 1
(1: 9.57, 2: 9.04)

[A] Cn1cc(NC(=O)c2cnn3cccnc23)c(-c2cc(Oc3cccc(-n4nccc4CN)c3)ccc2OC(F)F)n1
[B] CN(C)C(=O)c1cc(Oc2ccc(OC(F)F)c(-c3nn(C)cc3NC(=O)c3cnn4cccnc34)c2)ccc1Cl
Ask: // select label with min value of measured pKi from [ A , B ] Provide the label of your selected option as the answer.
Result: A

[P] Cn1cc(NC(=O)c2cnn3cccnc23)c(-c2cc(Oc3ccc4c(c3)CCNC4)ccc2OC(F)F)n1
[Q] Cn1cc(NC(=O)c2cnn3cccnc23)c(-c2cc(Oc3ccc(CN4CCC[C@@H]4CO)cc3)ccc2OC(F)F)n1 (racemic)
Ask: Which one would you say has the larger pKi value: P , or Q ? Provide the label of your selected option as the answer.
Result: P

---

target or system: Recombinant human JAK2 kinase domain protein (Residues 812-1132) (Homo sapiens)
method notes: JAK2 biochemical assay (LabChip mobility shift, Ki)
condition details: Biochem JAK2 Ki
pKi: −log10 of the molar value.
property: pKi

molecule: Cn1cc(NC(=O)c2cnn3cccnc23)c(-c2cc(Oc3ccc(CN4CCCC(O)C4)cc3)ccc2OC(F)F)n1 (racemic)
pKi: 8.82

[A] Cn1cc(NC(=O)c2cnn3cccnc23)c(-c2cc(Oc3ccc(CN)cc3)ccc2OC(F)F)n1
[B] NCc1ccccc1Oc1ccc(OC(F)F)c(-c2n[nH]cc2NC(=O)c2cnn3cccnc23)c1
Ask: Which one would you say has the larger pKi value: A , or B ? Provide the label of your selected option as the answer.
Result: A

[a] Cn1cc(NC(=O)c2cnn3cccnc23)c(-c2cc(Oc3ccnnc3)ccc2OC(F)F)n1
[b] Cn1cc(NC(=O)c2cnn3cccnc23)c(-c2cc(Oc3ccc(CN4CCCC[C@@H]4CO)cc3)ccc2OC(F)F)n1 (racemic)
[c] CN1CC(CC#N)(c2ccc(Oc3ccc(OC(F)F)c(-c4nn(C)cc4NC(=O)c4cnn5cccnc45)c3)cc2)C1
[d] Cn1cc(NC(=O)c2cnn3cccnc23)c(-c2cc(Oc3cc(CN)ccc3F)ccc2OC(F)F)n1
Ask: Rank the items in ascending order with respect to pKi. Please respond with the labels ordered as the question requires.
Result: c, b, a, d
(c: 8.51, b: 9.00, a: 9.42, d: 9.68)

---

target or system: recombinant human JAK1 kinase domain protein (Residues 854-1154) (Homo sapiens)
Construct: human JAK1 kinase domain protein (Residues 854-1154)
method notes: JAK1 biochemical assay (LabChip mobility shift, Ki)
condition details: read-out: Biochem JAK1 Ki
property: Ki (nM)

Reference set, count: 4
smiles entry: Cc1nn(CCO)cc1Oc1ccc(OC(F)F)c(-c2nn(C)cc2NC(=O)c2cnn3cccnc23)c1
target or system: recombinant human JAK1 kinase domain protein (Residues 854-1154) (Homo sapiens)
unit: nM
reported: 0.57
--
smiles entry: O=C(Nc1cn(C2COC2)nc1-c1cc(Oc2ccccc2)ccc1OC(F)F)c1cnn2cccnc12
target or system: recombinant human JAK1 kinase domain protein (Residues 854-1154) (Homo sapiens)
unit: nM
reported: 0.35
--
smiles entry: CNCc1ccnn1-c1cccc(Oc2ccc(OC(F)F)c(-c3nn(C)cc3NC(=O)c3cnn4cccnc34)c2)c1
target or system: recombinant human JAK1 kinase domain protein (Residues 854-1154) (Homo sapiens)
unit: nM
reported: 3.9
--
smiles entry: CCn1cc(NC(=O)c2cnn3cccnc23)c(-c2cc(Oc3cccc(C4(O)CN(C)C4)c3)ccc2OC(F)F)n1
target or system: recombinant human JAK1 kinase domain protein (Residues 854-1154) (Homo sapiens)
unit: nM
reported: 0.69

[1] CCN1CC(O)(Cn2cc(Oc3ccc(OC(F)F)c(-c4nn(C)cc4NC(=O)c4cnn5cccnc45)c3)cn2)C1
[2] NCc1ccc(Oc2ccc(OC(F)F)c(-c3n[nH]cc3NC(=O)c3cnn4cccnc34)c2)cc1
[3] CN1CC(Cn2cc(Oc3ccc(OC(F)F)c(-c4nn(C)cc4NC(=O)c4cnn5cccnc45)c3)cn2)C1
Ask: Rank the items in ascending order with respect to Ki. Please respond with the labels ordered as the question requires.
Result: 1, 3, 2
